Data provenance is patent US20150266963A1.

Target: T1, recombinant human CD27 Fc chimera (CD27-Fc) (human, UniProt P26842 21-192)
T1 construct: Bought reagent; also called recombinant CD27-Fc; Fc part of the bought chimera not given
T1 sequence (looked up): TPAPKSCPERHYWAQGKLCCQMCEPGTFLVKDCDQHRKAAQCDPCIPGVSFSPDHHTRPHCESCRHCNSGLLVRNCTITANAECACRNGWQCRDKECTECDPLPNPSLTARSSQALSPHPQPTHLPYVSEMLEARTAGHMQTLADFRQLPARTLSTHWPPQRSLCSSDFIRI
Experiment: ELISA; captured Flag-TNC-CD70
MEASURED QUANTITY: binding result

1) human-mouse CD70 chimera chim-2 (Flag-TNC-CD70) (ligand, not shown: small tags and cut ends, also called chimera 2) HPEPHTAELQLNLTVPRKDPTLRWGAGPALGRSFTHGPELEEGHLRIHQDGLYRLHIQVTLANCSSTTASRHHPTTLAVGICSPASRSISLLRLSFHQGCTIASQRLTPLARGDTLCTNLTGTLLPSRNTDETFFGVQWVRP ... binds
2) human-mouse CD70 chimera chim-3 (Flag-TNC-CD70) (ligand, not shown: small tags and cut ends, also called chimera 3) HPEPHTAELQLNLTVPRKDPTLRWGAGPALGRSFTHGPELEEGHLRIHQDGLYRLHIQVTLANCSSPGSTLQHRATLAVGICSPASRSISLLRLSFHQGCTIASQRLTPLARGDTLCTNLTGTLLPSRNTDETFFGVQWVRP ... binds
